# System under test: human serotonin reuptake transporter (Homo sapiens, UniProt P31645)
# Sequence (P31645 whole entry): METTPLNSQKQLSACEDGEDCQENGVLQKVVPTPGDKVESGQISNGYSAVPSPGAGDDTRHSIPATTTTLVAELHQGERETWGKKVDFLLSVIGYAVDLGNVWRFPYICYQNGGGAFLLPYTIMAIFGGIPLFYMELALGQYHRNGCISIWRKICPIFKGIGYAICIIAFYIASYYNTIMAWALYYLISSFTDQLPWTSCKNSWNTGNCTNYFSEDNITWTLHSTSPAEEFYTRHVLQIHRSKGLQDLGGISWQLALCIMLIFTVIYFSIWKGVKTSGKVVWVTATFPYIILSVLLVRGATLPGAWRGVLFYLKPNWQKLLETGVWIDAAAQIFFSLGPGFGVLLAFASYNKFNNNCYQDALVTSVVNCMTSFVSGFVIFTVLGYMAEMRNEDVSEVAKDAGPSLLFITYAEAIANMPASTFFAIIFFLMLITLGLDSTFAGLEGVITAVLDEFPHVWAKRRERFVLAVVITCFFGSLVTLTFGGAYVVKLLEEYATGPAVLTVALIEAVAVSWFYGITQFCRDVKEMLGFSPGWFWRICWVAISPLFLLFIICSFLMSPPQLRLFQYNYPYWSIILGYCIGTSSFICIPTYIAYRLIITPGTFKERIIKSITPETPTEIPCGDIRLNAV
# Assay method text: cell-based
# Settings: Human IC50 (nM) hSERT, recombinant human serotonin transporter (SERT)
Each record gets a class by IC50: bottom (below 800 nM), middle (800 nM to below 2000 nM), top (2000 nM or more)

INPUT: Determine which band this molecule sits in: CNCC1(c2ccc(Cl)c(F)c2)CCCCC1
OUTPUT: bottom

----------
Listed compounds paired with reported IC50
# System under test: human serotonin reuptake transporter (Homo sapiens, UniProt P31645)
# Assay method text: cell-based
# Settings: recombinant human serotonin transporter (SERT); read-out: Human IC50 (nM) hSERT

// worked examples, IC50 included
Compound | System under test | IC50
CNCC1(c2ccc(OC)cc2)CCCCC1O (single isomer, unassigned) [139 E2] | human serotonin reuptake transporter (Homo sapiens, UniProt P31645) | > 10000 nM
NCC1(c2ccc(Cl)c(Cl)c2)CCCC(O)C1 (single isomer, unassigned) [185 E1] | human serotonin reuptake transporter (Homo sapiens, UniProt P31645) | > 10000 nM

Consider the additional compound presented here.
INPUT: Which value of IC50 has been reported for CC1(O)CCC(CN)(c2ccc3c(c2)OCO3)CC1 (stereo not drawn) [Compound 216] in the records?
OUTPUT: > 10000 nM
